system: Haemophilus influenzae Holt; test: MIC, standard agar-dilution assay, Haemophilus influenzae Holt; type: cell-based; details: Haemophilus influenzae
parameter: MIC (µg/mL)
Report the value in µg/mL with no unit label.

Problem: Param item = CCC1OC(=O)CC(O)C(C)C(OC2OC(C)C(OC3CC(C)(O)C(O)C(C)O3)C(N(C)C)C2O)C(CCOc2ccc(OC)cc2)CC(C)C(=O)C=CC(C)=CC1COC1OC(C)C(O)C(OC)C1OC (centres unmarked) [Compound 14, 20-DH-20-O-(p-Methoxyphenyl)tylosin] ; retrieve measured MIC.
Result: 128

Problem: Param item = CCC1OC(=O)CC(O)C(C)C(OC2OC(C)C(O)C(N(C)C)C2O)C(CCOc2ccc([N+](=O)[O-])cc2)CC(C)C(=O)C=CC(C)=CC1COC1OC(C)C(O)C(OC)C1OC (centres unmarked) [Compound 34, 20-DH-20-O-(p-Nitrophenyl)desmycosin] ; retrieve measured MIC.
Result: 16

* * *

tested on: Staphylococcus aureus V41; experiment: MIC, standard agar-dilution assay, Staphylococcus aureus V41; assay type: cell-based; settings: Staphylococcus aureus V41; penicillin-resistant strain; agar dilution
Provide the recorded MIC for the entries that follow.
Report the value in µg/mL with no unit label.

Problem: Param item = CCC(=O)OC1C(OC2C(CCCl)CC(C)C(=O)C=CC(C)=CC(COC3OC(C)C(O)C(OC)C3OC)C(CC)OC(=O)CC(O)C2C)OC(C)C(O)C1N(C)C (centres unmarked) ; retrieve measured MIC.
Result: 0.25

Problem: Param item = CCC1OC(=O)CC(O)C(C)C(OC2OC(C)CC(N(C)C)C2O)C(CCOc2ccccc2)CC(C)C(=O)C=CC(C)=CC1COC1OC(C)C(O)C(OC)C1OC (centres unmarked) ; retrieve measured MIC.
Result: 0.25

Problem: Param item = CCC(=O)OC1C(OC2C(CCN3C(=O)c4ccccc4C3=O)CC(C)C(=O)C=CC(C)=CC(COC3OC(C)C(O)C(OC)C3OC)C(CC)OC(=O)CC(O)C2C)OC(C)C(O)C1N(C)C (centres unmarked) ; retrieve measured MIC.
Result: 0.5

Problem: Param item = CCC(=O)OC1C(OC2C(CCN3C(=O)c4ccccc4C3=O)CC(C)C(=O)C=CC(C)=CC(COC3OC(C)C(O)C(OC)C3OC)C(CC)OC(=O)CC(O)C2C)OC(C)C(OC2CC(C)(O)C(O)C(C)O2)C1N(C)C (centres unmarked) ; retrieve measured MIC.
Result: 1

Problem: Param item = CCC(=O)OC1C(C)OC(OC2C(CCN3C(=O)c4ccccc4C3=O)CC(C)C(=O)C=CC(C)=CC(COC3OC(C)C(O)C(OC)C3OC)C(CC)OC(=O)CC(O)C2C)C(OC(=O)CC)C1N(C)C (centres unmarked) ; retrieve measured MIC.
Result: 0.5

* * *

system: Mycoplasma hyorhinis; experiment: MIC, broth-dilution microtiter test, Mycoplasma hyorhinis; assay type: cell-based; conditions: Mycoplasma hyorhinis; broth-dilution microtiter
Provide the recorded MIC for the entries that follow.
Report the value in µg/mL with no unit label.

Problem: Param item = CCC1OC(=O)CC(O)C(C)C(OC2OC(C)CC(N(C)C)C2O)C(CCOc2ccccc2)CC(C)C(=O)C=CC(C)=CC1COC1OC(C)C(O)C(OC)C1OC (centres unmarked) ; retrieve measured MIC.
Result: 12.5

Problem: Param item = CCC(=O)OC1C(OC2C(CCCl)CC(C)C(=O)C=CC(C)=CC(COC3OC(C)C(O)C(OC)C3OC)C(CC)OC(=O)CC(O)C2C)OC(C)C(OC2CC(C)(O)C(O)C(C)O2)C1N(C)C (centres unmarked) ; retrieve measured MIC.
Result: 50

Problem: Param item = CCC1OC(=O)CC(O)C(C)C(OC2OC(C)C(O)C(N(C)C)C2O)C(CCS(=O)(=O)c2ccc(C)cc2)CC(C)C(=O)C=CC(C)=CC1COC1OC(C)C(O)C(OC)C1OC (centres unmarked) ; retrieve measured MIC.
Result: 50

Problem: Param item = CCC1OC(=O)CC(O)C(C)C(OC2OC(C)C(O)C(N(C)C)C2O)C(CCOc2cccnc2)CC(C)C(=O)C=CC(C)=CC1COC1OC(C)C(O)C(OC)C1OC (centres unmarked) ; retrieve measured MIC.
Result: 50

Problem: Param item = CCC1OC(=O)CC(O)C(C)C(OC2OC(C)C(O)C(N(C)C)C2O)C(CCOc2ccccc2)CC(C)C(=O)C=CC(C)=CC1COC1OC(C)C(O)C(O)C1OC (centres unmarked) ; retrieve measured MIC.
Result: 50

Problem: Param item = CCC1OC(=O)CC(O)C(C)C(OC2OC(C)C(O)C(N(C)C)C2O)C(CCOc2cccc(Oc3ccccc3)c2)CC(C)C(=O)C=CC(C)=CC1COC1OC(C)C(O)C(OC)C1OC (centres unmarked) ; retrieve measured MIC.
Result: 12.5

Problem: Param item = CCC1OC(=O)CC(O)C(C)C(OC2OC(C)C(O)C(N(C)C)C2O)C(CCN2C(=O)c3ccccc3C2=O)CC(C)C(=O)C=CC(C)=CC1COC1OC(C)C(O)C(OC)C1OC (centres unmarked) ; retrieve measured MIC.
Result: 50

Problem: Param item = CCC1OC(=O)CC(O)C(C)C(OC2OC(C)C(O)C(N(C)C)C2O)C(CCOc2cc(Cl)cc(Cl)c2)CC(C)C(=O)C=CC(C)=CC1COC1OC(C)C(O)C(OC)C1OC (centres unmarked) ; retrieve measured MIC.
Result: 12.5
